Hey, just so you know, these numbers are from PubChem BioAssay AID179.

pEC50 listing for selected compounds.
tested on: CEM cells HIV-1 protection, formazan growth assay; experiment: NCI AIDS Antiviral Assay
pEC50: −log10 of the molar value.

{"compound": "COc1cccc(C2c3cc4c(cc3OC(N3CCOCC3)C2C)OCO4)c1OC (centres undefined)", "pEC50": "< 3.70"}
{"compound": "N#CCCN(CCC#N)c1ccc(/C=C2/N=C(COc3ccccc3)N(c3ccc(Cl)cc3)C2=O)cc1", "pEC50": "< 4.43"}
{"compound": "CCOC(=O)/C(=N/Nc1ccc(Cl)cc1)N1C(=S)C=C(C)NN(C)C1=S", "pEC50": "< 3.70"}

Now let's try a different one.
Value of measured pEC50 for the entry C[C@H]1CC[C@@]2(OC1)O[C@H]1C[C@H]3[C@@H]4CC[C@@H]5C[C@@H](OC6OC(CO)C(O)C(O)C6OC6OC(CO)C(O)C(O)C6O)CC[C@]5(C)[C@H]4CC[C@]3(C)[C@H]1[C@@H]2C (some centres undefined) : < 3.70
